experiment: qHTS of alpha-syn Inhibitors; conditions: Yeast expressing alpha-synuclein, BacTiter-Glo, 24 h; growth rescue; series mostly up to 46.1 µM; further: nearly all actives have a fitted effect of over 65% in size
Among all 370,000 compounds or so, about 500 (0.14%) were called active. About 2% were inconclusive and are not listed. The call rests on the fitted dose curve; in most records, active means well fitted activation curve with a large enough effect; inconclusive means small, poorly fitted or top-dose-only effect; inactive means no such curve, though single readings can be large or run the other way. The list comes from a sample in which actives are over-represented; it also holds close analogues and randomly drawn compounds.
I would appreciate it if you answered using one of these outcomes: 1 (yes) = active, 0 (no) = inactive

Req: I'd appreciate the recorded outcome for c1ccc(Cc2nn3c(Cn4cnc5ccccc54)nnc3s2)cc1 from this test.
Resp: 0 (no)

Req: I'd appreciate the recorded outcome for O=C(NCC1=C(c2ccc3ccccc3c2)C[C@@H]2CC[C@H]1N2Cc1ccco1)c1cccs1 from this test.
Resp: 1 (yes)

Req: I'd appreciate the recorded outcome for CC(=O)NCC1=C(c2ccc3ccccc3c2)C[C@@H]2CC[C@H]1N2Cc1ccco1 from this test.
Resp: 0 (no)

Req: I'd appreciate the recorded outcome for O=C(O)/C=C/c1ccc2c(c1)OCO2 from this test.
Resp: 0 (no)
